# assayed.target: BRM (Homo sapiens)
# Construct: made in house; host or cells: High Five insect cells
# Sequence (P51531 whole entry): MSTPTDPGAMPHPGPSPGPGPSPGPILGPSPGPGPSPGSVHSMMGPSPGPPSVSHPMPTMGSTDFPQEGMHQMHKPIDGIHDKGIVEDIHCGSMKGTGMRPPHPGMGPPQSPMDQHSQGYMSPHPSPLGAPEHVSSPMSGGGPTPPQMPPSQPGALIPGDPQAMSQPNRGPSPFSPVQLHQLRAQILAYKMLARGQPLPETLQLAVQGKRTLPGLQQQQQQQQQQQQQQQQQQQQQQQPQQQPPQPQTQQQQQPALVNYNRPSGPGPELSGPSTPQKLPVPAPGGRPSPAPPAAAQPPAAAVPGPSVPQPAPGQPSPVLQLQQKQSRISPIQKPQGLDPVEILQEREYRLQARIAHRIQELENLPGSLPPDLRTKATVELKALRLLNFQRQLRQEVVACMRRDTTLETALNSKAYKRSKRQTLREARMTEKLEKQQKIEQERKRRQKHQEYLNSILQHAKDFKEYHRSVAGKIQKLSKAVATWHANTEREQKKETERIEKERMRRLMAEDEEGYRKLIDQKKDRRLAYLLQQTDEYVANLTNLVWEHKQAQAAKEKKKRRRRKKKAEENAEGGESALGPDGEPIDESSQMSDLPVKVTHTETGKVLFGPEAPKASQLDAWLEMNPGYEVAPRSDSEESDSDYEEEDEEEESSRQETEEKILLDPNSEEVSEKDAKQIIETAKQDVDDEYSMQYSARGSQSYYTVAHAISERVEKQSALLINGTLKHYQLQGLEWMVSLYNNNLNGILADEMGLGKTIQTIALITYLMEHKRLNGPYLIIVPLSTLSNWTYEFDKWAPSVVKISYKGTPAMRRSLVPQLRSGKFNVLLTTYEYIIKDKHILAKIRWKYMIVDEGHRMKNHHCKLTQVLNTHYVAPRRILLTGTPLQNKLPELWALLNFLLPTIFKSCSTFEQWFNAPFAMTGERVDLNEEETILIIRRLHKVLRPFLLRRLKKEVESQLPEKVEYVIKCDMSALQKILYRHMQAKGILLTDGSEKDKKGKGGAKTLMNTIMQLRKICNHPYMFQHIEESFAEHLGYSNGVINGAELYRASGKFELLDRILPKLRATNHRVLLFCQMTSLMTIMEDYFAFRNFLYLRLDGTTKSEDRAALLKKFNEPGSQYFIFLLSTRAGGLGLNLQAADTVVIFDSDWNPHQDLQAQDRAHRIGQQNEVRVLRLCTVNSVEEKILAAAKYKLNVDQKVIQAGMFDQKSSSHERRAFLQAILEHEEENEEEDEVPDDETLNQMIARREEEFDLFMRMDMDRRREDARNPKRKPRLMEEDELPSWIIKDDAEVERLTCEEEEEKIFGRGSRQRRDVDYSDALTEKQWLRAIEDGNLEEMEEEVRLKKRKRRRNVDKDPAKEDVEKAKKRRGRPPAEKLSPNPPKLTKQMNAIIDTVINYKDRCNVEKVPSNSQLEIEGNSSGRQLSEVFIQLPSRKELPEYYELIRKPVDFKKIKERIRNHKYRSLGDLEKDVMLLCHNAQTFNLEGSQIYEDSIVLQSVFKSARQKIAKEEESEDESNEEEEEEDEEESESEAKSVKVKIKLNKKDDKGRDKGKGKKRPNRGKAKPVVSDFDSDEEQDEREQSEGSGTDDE
# procedure.summary: ATPase catalytic activity of BRM, ADP-Glo in vitro biochemical assay
# experimental.setup: ADP-Glo ATPase assay, 30 nM BRM, 400 μM ATP
# Method: The ATPase catalytic activity of BRM or BRG-1 was measured by an in vitro biochemical assay using ADP-Glo™ (Promega, V9102). The ADP-Glo™ kinase assay is performed in two steps once the reaction is complete. The first step is to deplete any unconsumed ATP in the reaction. The second step is to convert the reaction product ADP to ATP, which will be utilized by the luciferase to generate luminesce and be detected by a luminescence reader, such as Envision. […]
quantity.name: log10 of IC50 (log10 of the value in nM)
Recorded IC50 (log10, nM)

Would you please look over these solved cases?
molecule: O=C(NCc1cc2nc(N3CCOc4ccc(C56CC(C5)C6)nc43)ccc2cn1)c1ccc2c(c1)S(=O)(=O)CCOC2 [Compound 766]
assayed.target: BRM (Homo sapiens)
log10 of IC50: 1.23
--
molecule: C[C@@H]1CN(c2cncc(-c3ccc4cnc(CNC(=O)c5ccc(C(F)F)c(S(C)(=O)=O)c5)cc4n3)n2)C[C@H](C)O1 [Compound 163]
assayed.target: BRM (Homo sapiens)
log10 of IC50: 1.32
--
molecule: O=C(NCc1cc2nc(-c3ccnc([C@@H]4CC4(F)F)n3)ccc2cn1)c1ccc2c(c1)S(=O)(=O)CCOC2 [Compound 218]
assayed.target: BRM (Homo sapiens)
log10 of IC50: 2.22
--
molecule: Cc1cc(C(=O)NCc2cc3cc(-c4cccc(N5C[C@@H](C)O[C@@H](C)C5)n4)ccc3cn2)cc2c1COCCS2(=O)=O [Compound 728]
assayed.target: BRM (Homo sapiens)
log10 of IC50: 1.09

input: Looking for the measured log10 of IC50 of O=C(NCc1cc2nc(N3CCc4cccnc43)ccc2cn1)c1ccc2c(c1)S(=O)(=O)CCOC2 [Compound 47] , can you help?
output: 1.87

input: And for O=C(NCc1cc2cc(-c3cncc(C4CC4)n3)ccc2cn1)c1ccc2c(c1)S(=O)(=O)CCOC2 [Compound 263] ?
output: 1.37

input: Then O=C(NCc1cc2nc(N3CC(F)Cc4cccnc43)ccc2cn1)c1ccc2c(c1)S(=O)(=O)CCOC2 (centres unmarked) [Compound 842] ?
output: 1.48

input: Next molecule: O=C(NCc1cc2nc(-c3cccc(C4CC4)n3)ccc2nn1)c1ccc2c(c1)S(=O)(=O)CCOC2 [Compound 253]
output: 1.32

input: Quick one: O=C(NCc1cc2nc(-c3cccc(OCC4CC4)c3)ccc2cn1)c1ccc2c(c1)S(=O)(=O)CCOC2 [Compound 820]
output: 1.98

input: Another: COc1ccc(-c2ccc3cnc(CNC(=O)c4ccc5c(c4)S(=O)(=O)CCOC5)cc3n2)nc1 [Compound 850]
output: 2.82

input: Please do the same for O=C(NCc1cc2nc(N3CCOc4c(F)cc(C5CC5)nc43)ccc2cn1)c1ccc2c(c1)S(=O)(=O)CCOC2 [Compound 804] as well.
output: 1.20

input: Again, but for O=C(NCc1cc2nc(-c3cccc(C4(F)CCC4)n3)ccc2cn1)c1ccc2c(c1)S(=O)(=O)CCOC2 [Compound 154]
output: 2.15

input: Try this molecule too: CC(C)S(=O)(=O)c1cccc(C(=O)NCc2cc3nc(-c4cncc(C5CC5)n4)ccc3cn2)c1 [Compound 296]
output: 2.50

input: Field entry: O=C(NCc1cc2nc(N3CCOc4nc(C(F)F)ccc43)ccc2cn1)c1ccc2c(c1)S(=O)(=O)CCOC2 [Compound 846]
output: 2.61
